The compounds listed here are annotated with their CC50.
Tested on: EKVX
assay info: Cytotoxicity against Homo sapiens (human) EKVX cells after 48 hr by sulforhodamine B assay
Assay type: functional
condition context: read-out: LC50 (the source's name)
measurement type: CC50 (µM)

> print(dat)
              compound.structure.string  assayed.system  recorded.result
 1  ClCc1cccc(Cn2cnc3c(Cl)nc(Cl)nc32)c1            EKVX             6.45
 2  ClCc1ccc(Cn2cnc3c(Cl)nc(Cl)nc32)cc1            EKVX             58.9
 3      ClCc1cccc(Cn2cnc3ncnc(Cl)c32)c1            EKVX             64.6
 4     Nc1nc(Cl)c2ncn(Cc3ccccc3CCl)c2n1            EKVX             60.3
 5      ClCc1ccc(Cn2cnc3ncnc(Cl)c32)cc1            EKVX              8.7
 6  ClCc1ccc(Cn2cnc3nc(Cl)nc(Cl)c32)cc1            EKVX              6.3
 7      ClCc1cccc(Cn2cnc3c(Cl)ncnc32)c1            EKVX             63.1
 8        ClCc1ccccc1Cn1cnc2ncnc(Cl)c21            EKVX             45.7
 9  ClCc1cccc(Cn2cnc3nc(Cl)nc(Cl)c32)c1            EKVX             4.57
10        ClCc1ccccc1Cn1cnc2c(Cl)ncnc21            EKVX             37.1
11    ClCc1ccccc1Cn1cnc2nc(Cl)nc(Cl)c21            EKVX             6.02
12   Nc1nc(Cl)c2ncn(Cc3cccc(CCl)c3)c2n1            EKVX             60.2
13   Nc1nc(Cl)c2ncn(Cc3ccc(CCl)cc3)c2n1            EKVX             28.2
14    ClCc1ccccc1Cn1cnc2c(Cl)nc(Cl)nc21            EKVX             5.88
15      ClCc1ccc(Cn2cnc3c(Cl)ncnc32)cc1            EKVX             38.9
